Biological target: pig TRPM8 (Sus scrofa)
Construct: expressed in transfected cells; host or cells: CHO (pcDNA5/FRT/TO vector; hygromycin B and blasticidin selection)
Sequence (F1SM15 1-1104): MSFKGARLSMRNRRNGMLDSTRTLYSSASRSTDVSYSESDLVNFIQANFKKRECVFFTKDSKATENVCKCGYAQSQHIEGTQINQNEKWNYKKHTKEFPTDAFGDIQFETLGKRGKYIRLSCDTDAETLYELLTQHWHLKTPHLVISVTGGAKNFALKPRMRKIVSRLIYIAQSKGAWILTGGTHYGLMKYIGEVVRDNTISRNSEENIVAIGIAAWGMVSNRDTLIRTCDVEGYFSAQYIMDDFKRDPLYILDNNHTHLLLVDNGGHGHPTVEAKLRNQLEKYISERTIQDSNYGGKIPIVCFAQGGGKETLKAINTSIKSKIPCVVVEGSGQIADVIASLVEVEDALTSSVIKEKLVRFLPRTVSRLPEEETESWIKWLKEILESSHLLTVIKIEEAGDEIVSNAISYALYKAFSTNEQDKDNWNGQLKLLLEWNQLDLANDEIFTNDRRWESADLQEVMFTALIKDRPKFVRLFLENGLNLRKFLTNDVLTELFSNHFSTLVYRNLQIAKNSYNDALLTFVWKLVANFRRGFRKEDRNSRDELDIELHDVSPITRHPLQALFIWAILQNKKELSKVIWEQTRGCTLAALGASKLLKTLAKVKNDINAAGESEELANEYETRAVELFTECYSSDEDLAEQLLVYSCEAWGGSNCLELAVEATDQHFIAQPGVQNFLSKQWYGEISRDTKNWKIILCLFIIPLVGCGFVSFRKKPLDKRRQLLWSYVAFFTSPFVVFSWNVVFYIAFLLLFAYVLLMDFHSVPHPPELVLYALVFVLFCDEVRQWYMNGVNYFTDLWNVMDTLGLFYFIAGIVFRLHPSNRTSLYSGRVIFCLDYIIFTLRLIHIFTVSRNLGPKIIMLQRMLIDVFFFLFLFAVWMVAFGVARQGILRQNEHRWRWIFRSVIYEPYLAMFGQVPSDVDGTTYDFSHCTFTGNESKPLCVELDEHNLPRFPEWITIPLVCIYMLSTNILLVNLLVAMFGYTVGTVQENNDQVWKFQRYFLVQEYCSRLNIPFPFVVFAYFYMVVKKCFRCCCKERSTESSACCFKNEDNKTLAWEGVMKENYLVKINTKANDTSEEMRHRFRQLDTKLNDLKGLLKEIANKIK
Assay: In vitro pig TRPM8 fluorescence calcium flux assay (recombinant CHO cells, Fluo4-AM, FDSS6000)
Type: cell-based
Settings: recombinant CHO cells expressing pig TRPM8; menthol-related EC50, normalized to 100 μM menthol
METRIC: pEC50
Convention used: pEC50 is expressed as -log10 of the molar concentration.

For the compound shown here, CC(C)[C@@H]1CC[C@@H](C)C[C@@]1(O)C(=O)NCC(=O)NCc1ccccc1 , give the reported pEC50.
6.12

Another compound to look at: CC(C)[C@@H]1CC[C@@H](C)C[C@@]1(O)C(=O)NCC(C)(O)c1ccccc1 (stereo partly shown)
7.67

Another compound to look at: CC(C)[C@@H]1CC[C@@H](C)C[C@@]1(O)C(=O)NCCc1cccc(C(=O)OC[C@H](C)O)c1
7.55

Another compound to look at: CC(C)[C@@H]1CC[C@@H](C)C[C@@]1(O)C(=O)N[C@@H](C)CCc1ccc(O)cc1
6.46

----------
Biological target: human TRPM8 (Homo sapiens, UniProt Q7Z2W7)
Construct: expressed in transfected cells; host or cells: CHO (p658 mammalian expression vector)
Sequence (Q7Z2W7 whole entry): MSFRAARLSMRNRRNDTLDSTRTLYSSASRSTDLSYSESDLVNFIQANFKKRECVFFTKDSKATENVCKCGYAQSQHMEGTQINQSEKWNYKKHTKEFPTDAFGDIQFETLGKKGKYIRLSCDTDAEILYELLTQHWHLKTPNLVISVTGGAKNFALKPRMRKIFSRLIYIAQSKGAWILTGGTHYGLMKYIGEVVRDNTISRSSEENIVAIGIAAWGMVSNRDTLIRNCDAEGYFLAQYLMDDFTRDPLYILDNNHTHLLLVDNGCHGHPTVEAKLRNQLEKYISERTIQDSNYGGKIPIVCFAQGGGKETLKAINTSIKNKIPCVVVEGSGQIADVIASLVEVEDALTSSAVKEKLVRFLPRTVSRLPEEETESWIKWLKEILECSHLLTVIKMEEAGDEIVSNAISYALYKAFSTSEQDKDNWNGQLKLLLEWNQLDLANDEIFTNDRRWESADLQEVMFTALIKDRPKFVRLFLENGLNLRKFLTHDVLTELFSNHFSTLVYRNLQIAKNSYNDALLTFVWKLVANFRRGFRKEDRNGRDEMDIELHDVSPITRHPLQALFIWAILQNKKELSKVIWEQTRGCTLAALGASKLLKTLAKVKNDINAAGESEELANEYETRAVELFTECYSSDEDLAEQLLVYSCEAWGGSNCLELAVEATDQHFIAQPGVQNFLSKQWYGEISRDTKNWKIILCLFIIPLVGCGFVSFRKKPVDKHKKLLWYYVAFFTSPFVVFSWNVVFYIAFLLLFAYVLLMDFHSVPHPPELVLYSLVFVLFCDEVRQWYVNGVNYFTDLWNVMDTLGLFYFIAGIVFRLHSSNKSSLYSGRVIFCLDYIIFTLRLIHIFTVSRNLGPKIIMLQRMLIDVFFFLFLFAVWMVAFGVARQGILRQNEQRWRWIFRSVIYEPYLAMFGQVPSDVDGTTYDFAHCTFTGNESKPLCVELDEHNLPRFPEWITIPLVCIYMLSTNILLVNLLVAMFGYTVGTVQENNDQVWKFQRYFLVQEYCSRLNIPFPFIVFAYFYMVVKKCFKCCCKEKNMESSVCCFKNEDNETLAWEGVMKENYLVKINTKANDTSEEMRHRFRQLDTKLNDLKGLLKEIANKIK
Test: In vitro human TRPM8 automated patch-clamp assay (SyncroPatch 384PE, CHO cells)
Assay type: cell-based
Details: CHO cells expressing human TRPM8, 28° C.
Counter-ions that a name gives are not always drawn.
Task for the reader: assign each of the following molecules its reported log10 of EC50.
# log10 transformed; quantity=EC50; unit=nM

For the molecule shown here, CC(C)[C@@H]1CC[C@@H](C)C[C@@]1(O)C(=O)NCC(=O)Nc1ccccc1 , give the reported log10 of EC50.
3.48

Another molecule to look at: CC(C)[C@@H]1CC[C@@H](C)C[C@@]1(O)C(=O)NCCc1ccncc1
3.51

Another molecule to look at: COC(=O)[C@@H](N)COc1cccc(CCNC(=O)[C@]2(O)C[C@H](C)CC[C@H]2C(C)C)c1
3.38

Another molecule to look at: CC(C)[C@@H]1CC[C@@H](C)C[C@@]1(O)C(=O)NCCc1ccccc1OC[C@H](O)CO
3.41

Another molecule to look at: CC(C)[C@@H]1CC[C@@H](C)C[C@@]1(O)C(=O)NCC(NC(=O)CN)c1ccccc1 (single isomer, unassigned) [Example 184]
2.78

Another molecule to look at: CC(C)[C@@H]1CC[C@@H](C)C[C@@]1(O)C(=O)NCCc1cccc(C(=O)OCCN)c1 [Example 16, hydrochloride]
3.11

Another molecule to look at: CCOC(=O)c1cccc(CCNC(=O)[C@]2(O)C[C@H](C)CC[C@H]2C(C)C)c1
3.16

Another molecule to look at: COC(=O)c1cccc(C(O)CNC(=O)[C@]2(O)C[C@H](C)CC[C@H]2C(C)C)c1 (some centres unmarked)
3.66

Another molecule to look at: CC(C)[C@@H]1CC[C@@H](C)C[C@@]1(O)C(=O)NC[C@@H](N)c1ccccc1
2.15

Another molecule to look at: CC(=O)O[C@H](CNC(=O)[C@]1(O)C[C@H](C)CC[C@H]1C(C)C)c1ccccc1
3.05

Another molecule to look at: CC(C)OC(=O)CNC(=O)[C@]1(O)C[C@H](C)CC[C@H]1C(C)C
3.75

Another molecule to look at: CC(C)[C@@H]1CC[C@@H](C)C[C@@]1(O)C(=O)NCCc1ccccc1CCO
3.11

Another molecule to look at: CC(C)[C@@H]1CC[C@@H](C)C[C@@]1(O)C(=O)NC[C@@H](O)c1ccccc1
2.91

Another molecule to look at: COC(=O)COc1cccc(CCNC(=O)[C@]2(O)C[C@H](C)CC[C@H]2C(C)C)c1
3.76

Another molecule to look at: CC(C)[C@@H]1CC[C@@H](C)C[C@@]1(O)C(=O)NCC(=O)c1cccc(F)c1F
3.15

Another molecule to look at: COC(=O)[C@@H](N)Cc1ccccc1CCNC(=O)[C@]1(O)C[C@H](C)CC[C@H]1C(C)C
3.23

Another molecule to look at: CC(C)[C@@H]1CC[C@@H](C)C[C@@]1(O)C(=O)NCCc1cccnc1
3.81

Another molecule to look at: CC(C)[C@@H]1CC[C@@H](C)C[C@@]1(O)C(=O)NCC(NC(=O)CN)c1ccccc1 (single isomer, unassigned) [Example 183]
2.08

Another molecule to look at: CC(C)[C@@H]1CC[C@@H](C)C[C@@]1(O)C(=O)NCCc1ccccc1OCCO
3.45

Another molecule to look at: CC(C)[C@@H]1CC[C@@H](C)C[C@@]1(O)C(=O)NCC(=O)c1ccccc1O
2.67

Another molecule to look at: CC(C)[C@@H]1CC[C@@H](C)C[C@@]1(O)C(=O)NCCc1ccccn1
3.77

Another molecule to look at: CC(C)[C@@H]1CC[C@@H](C)C[C@@]1(O)C(=O)NCC1(O)CCOc2ccccc21 (some centres unmarked)
2.80

Another molecule to look at: CC(CNC(=O)[C@]1(O)C[C@H](C)CC[C@H]1C(C)C)c1ccccc1 (some centres unmarked)
3.26

Another molecule to look at: CC(C)[C@@H]1CC[C@@H](C)C[C@@]1(O)C(=O)NCC1(O)CCc2ccccc21 (some centres unmarked)
2.70

Another molecule to look at: CC(C)[C@@H]1CC[C@@H](C)C[C@@]1(O)C(=O)NCCc1ccccc1CCN
2.30

Another molecule to look at: CC(C)[C@@H]1CC[C@@H](C)C[C@@]1(O)C(=O)NCC(C)(O)c1ccccc1 (some centres unmarked)
3.34

Another molecule to look at: CC(C)[C@@H]1CC[C@@H](C)C[C@@]1(O)C(=O)NCC(CO)c1ccccc1 (some centres unmarked) [Example 70]
3.60

Another molecule to look at: Cc1cccc(C(F)(F)CNC(=O)[C@]2(O)C[C@H](C)CC[C@H]2C(C)C)c1
2.71

Another molecule to look at: CC(C)[C@@H]1CC[C@@H](C)C[C@@]1(O)C(=O)NC[C@@H](NC(=O)[C@H](C)N)c1ccccc1
1.72

Another molecule to look at: CC(C)[C@@H]1CC[C@@H](C)C[C@@]1(O)C(=O)NCC(O)c1ccccc1Cl (some centres unmarked)
2.79

Another molecule to look at: COC(=O)Cc1cccc(CCNC(=O)[C@]2(O)C[C@H](C)CC[C@H]2C(C)C)c1
3.46

----------
Biological target: pig TRPM8 (Sus scrofa)
Construct: expressed in transfected cells; host or cells: CHO (pcDNA5/FRT/TO vector; hygromycin B and blasticidin selection)
Assay: In vitro pig TRPM8 fluorescence calcium flux assay (recombinant CHO cells, Fluo4-AM, FDSS6000)
Type: cell-based
Conditions: recombinant CHO cells expressing pig TRPM8; menthol-related EC50, normalized to 100 μM menthol
// assign T if EC50 falls strictly below 5 nM, else F (ties count as F)

Please let me know if CC(C)[C@@H]1CC[C@@H](C)C[C@@]1(O)C(=O)NCCc1ccncc1 shows EC50 below 5 nM.
F

Another compound to look at: CC(C)[C@@H]1CC[C@@H](C)C[C@@]1(O)C(=O)NCCc1cccc(O)c1
T

Another compound to look at: CC(C)[C@@H]1CC[C@@H](C)C[C@@]1(O)C(=O)NCC(CO)c1ccccc1 (stereo partly shown) [Example 70]
F

Another compound to look at: CC(C)[C@@H]1CC[C@@H](C)C[C@@]1(O)C(=O)NC1CCOC1=O (stereo partly shown)
F

Another compound to look at: CC(C)[C@@H]1CC[C@@H](C)C[C@@]1(O)C(=O)NCC(O)c1ccc(F)cc1 (stereo partly shown)
T

Another compound to look at: CC(CNC(=O)[C@]1(O)C[C@H](C)CC[C@H]1C(C)C)c1ccccc1 (stereo partly shown)
F

Another compound to look at: CC(C)[C@@H]1CC[C@@H](C)C[C@@]1(O)C(=O)NC[C@@H](OCCO)c1ccccc1
F

Another compound to look at: CC(C)[C@@H]1CC[C@@H](C)C[C@@]1(O)C(=O)NCC(NC(=O)CN)c1ccccc1 (single isomer, unassigned) [Example 184]
F

Another compound to look at: CC(C)[C@@H]1CC[C@@H](C)C[C@@]1(O)C(=O)NCC1(O)CCc2c(Cl)cccc21 (stereo partly shown)
T

Another compound to look at: CC(C)[C@@H]1CC[C@@H](C)C[C@@]1(O)C(=O)NCC(=O)OCc1ccccc1
F

Another compound to look at: Cc1[nH]c2ccccc2c1CCNC(=O)[C@]1(O)C[C@H](C)CC[C@H]1C(C)C
F

Another compound to look at: [2H]C(O)(CNC(=O)[C@]1(O)C[C@H](C)CC[C@H]1C(C)C)c1ccccc1 (stereo partly shown) [Example 72]
T

Another compound to look at: CC(C)[C@@H]1CC[C@@H](C)C[C@@]1(O)C(=O)NCCc1ccccc1OCC[N+](C)(C)C
F

Another compound to look at: CC(C)[C@@H]1CC[C@@H](C)C[C@@]1(O)C(=O)NCC(=O)c1ccc(Cl)cc1Cl
F

Just for reference, patent US20240124408A1 is where these values come from.
